Provenance of the data: paper PMC9354042

target: BRAF^V600E (Homo sapiens, UniProt P15056, V600E)
Sequence (P15056 whole entry V600E): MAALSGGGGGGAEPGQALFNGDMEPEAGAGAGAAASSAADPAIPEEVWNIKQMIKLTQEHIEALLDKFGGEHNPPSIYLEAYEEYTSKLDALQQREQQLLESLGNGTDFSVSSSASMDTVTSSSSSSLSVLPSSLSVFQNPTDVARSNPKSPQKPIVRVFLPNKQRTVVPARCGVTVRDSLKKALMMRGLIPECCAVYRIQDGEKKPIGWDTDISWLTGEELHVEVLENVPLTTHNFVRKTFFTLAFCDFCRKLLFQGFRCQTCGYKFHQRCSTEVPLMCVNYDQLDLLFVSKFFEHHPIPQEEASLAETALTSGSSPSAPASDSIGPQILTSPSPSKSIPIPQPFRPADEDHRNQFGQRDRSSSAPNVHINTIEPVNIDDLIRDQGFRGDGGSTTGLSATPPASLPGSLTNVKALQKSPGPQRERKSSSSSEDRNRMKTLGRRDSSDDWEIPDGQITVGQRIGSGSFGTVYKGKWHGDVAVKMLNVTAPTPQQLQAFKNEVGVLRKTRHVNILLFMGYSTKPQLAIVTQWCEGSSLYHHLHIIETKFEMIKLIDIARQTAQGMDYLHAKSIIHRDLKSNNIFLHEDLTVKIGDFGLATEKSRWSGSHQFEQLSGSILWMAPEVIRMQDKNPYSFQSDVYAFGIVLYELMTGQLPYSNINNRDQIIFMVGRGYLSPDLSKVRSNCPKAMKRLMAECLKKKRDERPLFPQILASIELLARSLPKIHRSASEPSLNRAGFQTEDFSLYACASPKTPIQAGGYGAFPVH
assay.remarks: BRAF V600E enzymatic activity, FRET-based Z'-Lyte kinase assay
Description: The experiments were performed according to the instructions of the manufacturer. […] For each assay, 10 μl kinase reactions were added to 384-well plate, mixed thoroughly, and incubated for 1 hour at room temperature. Then, a 5 μl development solution was added to each well and the plate was incubated for another 1 h at room temperature. Then, a 5 μl stop reagent was loaded to stop the reaction. […] The plate was measured on an EnVision Multilabel Reader (Perkin-Elmer). […]
pIC50: −log10 of the molar value.
test.readout: pIC50

1. Cc1nc(-c2cccc(NS(C)(=O)=O)c2F)c(-c2ccnc(NCCCCCCC(=O)NO)n2)s1 [21d]	6.59
2. CCS(=O)(=O)Nc1cccc(-c2nc(C)sc2-c2ccnc(NCCCCCCC(=O)NO)n2)c1F [21e]	6.97
3. CCCS(=O)(=O)Nc1cccc(-c2nc(C(C)(C)C)sc2-c2ccnc(NCCCCCCC(=O)NO)n2)c1F [21b]	8.77

I. CC(C)(C)c1nc(-c2cccc(NS(=O)(=O)c3c(F)cccc3F)c2F)c(-c2ccnc(NCCCCCCC(=O)NO)n2)s1 [14b]
II. CC(C)(C)c1nc(-c2cccc(NS(=O)(=O)c3c(F)cccc3F)c2F)c(-c2ccnc(NCCCCCC(=O)NO)n2)s1 [14a]
Task: Hello, I am sorting some records. Could you say if I or II has the smaller pIC50 value? Respond with the label that goes with your answer.
Result: II
(II: 8.49, I: 8.77)

---

target: HDAC5 (Homo sapiens, UniProt Q9UQL6)
Sequence (Q9UQL6 whole entry): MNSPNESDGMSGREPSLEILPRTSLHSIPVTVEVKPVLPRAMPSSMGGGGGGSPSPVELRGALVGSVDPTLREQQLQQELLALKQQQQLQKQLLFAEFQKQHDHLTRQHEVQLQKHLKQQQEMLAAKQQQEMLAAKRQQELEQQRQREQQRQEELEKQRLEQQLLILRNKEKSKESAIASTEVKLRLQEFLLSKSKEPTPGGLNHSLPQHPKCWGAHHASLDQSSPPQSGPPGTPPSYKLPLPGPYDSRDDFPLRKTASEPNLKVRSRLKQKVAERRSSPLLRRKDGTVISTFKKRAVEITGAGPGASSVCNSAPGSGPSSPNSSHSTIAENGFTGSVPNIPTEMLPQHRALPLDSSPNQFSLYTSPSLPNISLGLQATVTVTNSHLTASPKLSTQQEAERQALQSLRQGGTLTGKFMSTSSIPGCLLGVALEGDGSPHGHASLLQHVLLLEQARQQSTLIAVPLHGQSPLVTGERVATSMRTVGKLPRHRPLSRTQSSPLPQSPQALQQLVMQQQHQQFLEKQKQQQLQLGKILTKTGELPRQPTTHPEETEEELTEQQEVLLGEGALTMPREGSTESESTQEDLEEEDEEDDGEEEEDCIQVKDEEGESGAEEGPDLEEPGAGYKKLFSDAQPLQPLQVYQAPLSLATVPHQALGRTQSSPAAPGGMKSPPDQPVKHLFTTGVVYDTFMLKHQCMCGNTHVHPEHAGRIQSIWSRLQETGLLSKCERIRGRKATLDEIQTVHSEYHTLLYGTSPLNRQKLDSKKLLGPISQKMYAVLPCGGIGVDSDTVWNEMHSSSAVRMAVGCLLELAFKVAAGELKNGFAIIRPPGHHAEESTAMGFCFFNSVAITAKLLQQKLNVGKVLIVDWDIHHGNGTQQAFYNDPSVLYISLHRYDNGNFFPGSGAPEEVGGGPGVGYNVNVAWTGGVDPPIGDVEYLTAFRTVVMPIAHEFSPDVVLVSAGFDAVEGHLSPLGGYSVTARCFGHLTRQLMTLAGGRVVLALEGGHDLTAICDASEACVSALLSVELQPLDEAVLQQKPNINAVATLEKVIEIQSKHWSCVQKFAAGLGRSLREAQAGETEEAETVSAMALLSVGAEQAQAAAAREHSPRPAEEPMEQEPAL
assay.remarks: HDAC5 fluorescent-based enzymatic activity assay
measurement.setup: Table 3 isoform panel; read-out: Enzyme inhibition HDAC5 (Class IIA)
Experimental: The purified recombinant Human HDACs and their corresponding substrates were purchased from BPS Bioscience (BPS Bioscience Inc., United States). The assays were carried out in a 384-well format using the BPS fluorescent–based HDAC activity assay according to the manufacturer’s protocol. […] After 20 min of incubation, the fluorescence was detected at the excitation wavelength of 360 nm and the emission wavelength of 460 nm using the EnVision Multilabel Reader (PerkinElmer Inc., United States). […]
test.readout: IC50 (µM)
Provide only the numeric value, understood in µM.

Task: Which IC50 is listed for CC(C)(C)c1nc(-c2cccc(NS(=O)(=O)c3c(F)cccc3F)c2F)c(-c2ccnc(NCCCCCCC(=O)NO)n2)s1 [14b] ?
Result: 52.9

---

target: HDAC8 (Homo sapiens)
Construct: purchased BPS Bioscience
Sequence (Q9BY41 whole entry): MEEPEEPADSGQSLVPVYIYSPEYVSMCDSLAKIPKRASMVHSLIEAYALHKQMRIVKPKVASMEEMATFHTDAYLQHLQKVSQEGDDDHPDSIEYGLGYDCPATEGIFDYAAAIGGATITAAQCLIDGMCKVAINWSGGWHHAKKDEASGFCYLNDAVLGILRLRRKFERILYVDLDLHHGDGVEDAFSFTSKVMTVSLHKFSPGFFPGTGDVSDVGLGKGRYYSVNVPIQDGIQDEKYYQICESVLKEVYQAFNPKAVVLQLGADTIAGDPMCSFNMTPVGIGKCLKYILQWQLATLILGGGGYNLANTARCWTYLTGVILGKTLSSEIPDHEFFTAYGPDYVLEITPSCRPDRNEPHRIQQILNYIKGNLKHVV
assay.remarks: HDAC8 fluorescent-based enzymatic activity assay
Type: biochemical
measurement.setup: Table 3 isoform panel; read-out: Enzyme inhibition HDAC8 (Class I)
test.readout: pIC50
Please report pIC50 as the negative decimal logarithm of the molar concentration, giving only the number.

Task: Which pIC50 is listed for CC(C)(C)c1nc(-c2cccc(NS(=O)(=O)c3c(F)cccc3F)c2F)c(-c2ccnc(NCCCCCCC(=O)NO)n2)s1 [14b] ?
Result: 5.52

---

target: HDAC1 (Homo sapiens, UniProt Q13547)
Construct: purchased BPS Bioscience
Sequence (Q13547 whole entry): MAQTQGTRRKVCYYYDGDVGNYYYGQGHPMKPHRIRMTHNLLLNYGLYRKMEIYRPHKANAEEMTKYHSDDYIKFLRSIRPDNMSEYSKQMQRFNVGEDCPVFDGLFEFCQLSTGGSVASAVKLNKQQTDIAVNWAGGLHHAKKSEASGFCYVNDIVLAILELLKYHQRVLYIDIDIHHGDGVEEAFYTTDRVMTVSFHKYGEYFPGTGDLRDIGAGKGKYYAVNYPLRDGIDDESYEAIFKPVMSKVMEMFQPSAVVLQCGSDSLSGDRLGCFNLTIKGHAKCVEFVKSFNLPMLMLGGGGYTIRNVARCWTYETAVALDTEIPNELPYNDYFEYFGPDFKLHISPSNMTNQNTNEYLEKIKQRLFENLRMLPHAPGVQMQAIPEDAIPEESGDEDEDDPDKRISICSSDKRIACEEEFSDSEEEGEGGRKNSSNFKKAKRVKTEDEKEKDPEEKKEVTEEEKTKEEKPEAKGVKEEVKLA
assay.remarks: HDAC1 fluorescent-based enzymatic activity assay
Assay type: biochemical
measurement.setup: Table 1; read-out: Enzymatic IC50 HDAC1
test.readout: IC50 (nM)

# annotated cases, reported IC50 shown
1) CC(C)(C)c1nc(-c2cccc(NS(C)(=O)=O)c2F)c(-c2ccnc(NCCCCCCC(=O)NO)n2)s1 [21a]	113
2) Cc1nc(-c2cccc(NS(=O)(=O)c3c(F)cccc3F)c2F)c(-c2ccnc(NCCCCCCC(=O)NO)n2)s1 [14e]	42.2
3) CCS(=O)(=O)Nc1cccc(-c2nc(C)sc2-c2ccnc(NCCCCCCC(=O)NO)n2)c1F [21e]	52.2
4) O=C(CCCCCCNc1nccc(-c2sc(C3CC3)nc2-c2cccc(NS(=O)(=O)c3c(F)cccc3F)c2F)n1)NO [14h]	49.8

I. CCCS(=O)(=O)Nc1cccc(-c2nc(C(C)(C)C)sc2-c2ccnc(NCCCCCCC(=O)NO)n2)c1F [21b]
II. Cc1nc(-c2cccc(NS(=O)(=O)c3ccccc3)c2F)c(-c2ccnc(NCCCCCCC(=O)NO)n2)s1 [21f]
III. Cc1nc(-c2cccc(NS(C)(=O)=O)c2F)c(-c2ccnc(NCCCCCCC(=O)NO)n2)s1 [21d]
Task: Rank the 3 molecules: largest IC50 first, smallest last. Arrange the labels as the request states and list them.
Result: I, III, II

A. CC(C)(C)c1nc(-c2cccc(NS(=O)(=O)c3ccccc3)c2F)c(-c2ccnc(NCCCCCCC(=O)NO)n2)s1 [21c]
B. CC(C)c1nc(-c2cccc(NS(=O)(=O)c3c(F)cccc3F)c2F)c(-c2ccnc(NCCCCCCC(=O)NO)n2)s1 [14g]
C. CC(C)(C)c1nc(-c2cccc(NS(=O)(=O)c3c(F)cccc3F)c2F)c(-c2ccnc(NCCCCCC(=O)NO)n2)s1 [14a]
Task: Rank the 3 molecules: largest IC50 first, smallest last. Arrange the labels as the request states and list them.
Result: C, A, B
(C: 679 nM, A: 474 nM, B: 130 nM)

P. CC(C)(C)c1nc(-c2cccc(NS(=O)(=O)c3c(F)cccc3F)c2F)c(-c2ccnc(NCCCCCCC(=O)NO)n2)s1 [14b]
Q. CCCc1nc(-c2cccc(NS(=O)(=O)c3c(F)cccc3F)c2F)c(-c2ccnc(NCCCCCCC(=O)NO)n2)s1 [14i]
Task: Name the one with the greater IC50 value, either P or Q as given. Respond with the label that goes with your answer.
Result: P
